# System: Cabbage Looper [Trichoplusia ni (Hubner)]
# methodNotes: Cabbage looper insecticidal test
# Type: in vivo
# testSettings: second-instar larvae, percent in solution; 3-5 days
readoutName: LC50, CL (%)
Just the number please, in %, no unit attached.

- chemicalStructure: "CC(C)C(=Nc1ccc(F)c(Cl)c1F)OCc1ccc(F)c(Oc2ccc(F)cc2)c1"
  readoutName: "LC50, CL"
  observedValue: 0.00012
- chemicalStructure: "COc1c(Cl)cc(N=C(OCc2cccc(Oc3ccccc3)c2)C(C)C)cc1Cl"
  readoutName: "LC50, CL"
  observedValue: 0.002

Let us examine a further case.
Q) Fill in: LC50, CL of `CC(C)C(=Nc1ccc2c(c1)OCO2)OCc1cccc(Oc2ccc(Cl)cc2)n1` is ___
A) 0.0008

---

# System: Cabbage Looper [Trichoplusia ni (Hubner)]
# methodNotes: Cabbage looper insecticidal test
# Assay type: in vivo
# testSettings: second-instar larvae, percent in solution; 3-5 days
# Experimental: The compounds in Tables 1 and 2 above were tested for insecticidal activity using the following testing procedures. LC50 values, based on the results of these tests and calculated according to dosage-mortality curves, are expressed in Table 3. Cabbage Looper [Trichoplusia ni (Hubner)]: Test compounds were diluted in a 50-50 acetone-water solution. […] Mortality of the larvae was recorded 3-5 days later. […]
LC50, CL vs 0.02%: less than gives 1.0; not less than gives 0.0.

Take a look at these entries with their results.
- chemicalStructure: "COc1ccc(OC)c(N=C(OCc2cccc(Oc3ccccc3)c2)C(C)C)c1Cl"
  groupLabel: 0.0
- chemicalStructure: "CC(C)C(=Nc1cccc(C(F)(F)F)c1)OCc1cc(Oc2ccc(Cl)cc2)ccn1"
  groupLabel: 1.0
- chemicalStructure: "CC(C)C(=Nc1cccc(OC(F)(F)C(F)F)c1)OCc1cccc(Oc2ccc(F)cc2)c1"
  groupLabel: 1.0
- chemicalStructure: "CC(C)C(=Nc1ccc(C#N)c(F)c1)OCc1cccc(Oc2ccc(F)cc2)c1"
  groupLabel: 1.0
- chemicalStructure: "O=[N+]([O-])c1cccc(N=C(OCc2cccc(Oc3ccccc3)c2)C(Cl)Cl)c1"
  groupLabel: 0.0

Q) Dear reviewer, please state whether `CC(C)C(=Nc1ccc(OCC(F)(F)F)cc1)OCc1ccc(F)c(Oc2ccccc2)c1` has LC50, CL strictly beneath 0.02%.
A) 1.0

Q) Dear reviewer, please state whether `CC(C)C(=Nc1ccc(Cl)c(Cl)c1)OCc1ccc(F)c(Oc2ccccc2)c1` has LC50, CL strictly beneath 0.02%.
A) 1.0

Q) Dear reviewer, please state whether `Cc1cc(Cl)ccc1N=C(OCc1cccc(Oc2ccccc2)c1)C(C)(C)C` has LC50, CL strictly beneath 0.02%.
A) 1.0

Q) Dear reviewer, please state whether `CCOc1ccc(N=C(OCc2ccc(F)c(Oc3ccccc3)c2)C(C)C)cc1F` has LC50, CL strictly beneath 0.02%.
A) 1.0

Q) Dear reviewer, please state whether `CC(C)C(=Nc1ccc(F)c(Cl)c1)OCc1ccnc(Oc2ccccc2)c1` has LC50, CL strictly beneath 0.02%.
A) 1.0

Q) Dear reviewer, please state whether `CC(C)C(=Nc1cccc(Cl)c1)OCc1cccc(Oc2ccc(Cl)cc2)c1` has LC50, CL strictly beneath 0.02%.
A) 1.0

Q) Dear reviewer, please state whether `CC(C)C(=Nc1ccc(OC(F)(F)F)cc1)OCc1cccc(Oc2ccccc2)n1` has LC50, CL strictly beneath 0.02%.
A) 1.0

---

# Tested on: Cabbage Looper [Trichoplusia ni (Hubner)]
# methodNotes: Cabbage looper insecticidal test
# Format: in vivo
# testSettings: second-instar larvae, percent in solution; 3-5 days
The reader will find reported LC50, CL values listed item by item below.
Include the unit after the number when you answer.

Known results for molecules:
- chemicalStructure: "CC(C)C(=Nc1cccc(C(F)(F)F)c1)OCc1cccc(Oc2ccc(Cl)cn2)c1"
  systemName: "Cabbage Looper [Trichoplusia ni (Hubner)]"
  LC50, CL: "0.00075%"
- chemicalStructure: "CCC(CC)C(=Nc1ccc(Cl)cc1)OCc1cccc(Oc2ccc(F)cc2)c1"
  systemName: "Cabbage Looper [Trichoplusia ni (Hubner)]"
  LC50, CL: "0.017%"
- chemicalStructure: "CC(C)C(=Nc1ccc(F)c(C(F)(F)F)c1)OCc1ccc(F)c(Oc2ccc(F)cc2)c1"
  systemName: "Cabbage Looper [Trichoplusia ni (Hubner)]"
  LC50, CL: "0.00001%"

Q) Fill in: LC50, CL of `CC(C)C(=Nc1ccc(OCC(F)(F)F)cc1)OCc1cccc(Oc2ccccc2)c1` is ___
A) 0.002%

---

# Tested on: Cabbage Looper [Trichoplusia ni (Hubner)]
# methodNotes: Cabbage looper insecticidal test
# Assay type: in vivo
# testSettings: second-instar larvae, percent in solution; 3-5 days
readoutName: LC50, CL (%)
Just the number please, in %, no unit attached.

Q) Param readout = LC50, CL; param system = Cabbage Looper [Trichoplusia ni (Hubner)]; param query = CC(C)C(=Nc1ccc(OCC(F)(F)F)c(Cl)c1)OCc1cccc(Oc2ccccc2)c1 [Compound 425] ; response: value
A) 0.00075

Q) Param readout = LC50, CL; param system = Cabbage Looper [Trichoplusia ni (Hubner)]; param query = Clc1ccccc1N=C(OCc1cccc(Oc2ccccc2)c1)C(Cl)Cl [Compound 34] ; response: value
A) 0.015

Q) Param readout = LC50, CL; param system = Cabbage Looper [Trichoplusia ni (Hubner)]; param query = CC(C)(Cl)C(=Nc1ccc(C#N)c(Cl)c1)OCc1cccc(Oc2ccccc2)c1 [Compound 108] ; response: value
A) 0.002

Q) Param readout = LC50, CL; param system = Cabbage Looper [Trichoplusia ni (Hubner)]; param query = CC(C)C(=Nc1cc(F)c(F)cc1F)OCc1cccc(Oc2ccccc2)c1 [Compound 58] ; response: value
A) 0.002

Q) Param readout = LC50, CL; param system = Cabbage Looper [Trichoplusia ni (Hubner)]; param query = CC(C)C(=Nc1cccc(C(F)(F)F)c1)OCc1ccc(OCc2ccc(F)cc2)cc1 [Compound 488] ; response: value
A) 0.025

Q) Param readout = LC50, CL; param system = Cabbage Looper [Trichoplusia ni (Hubner)]; param query = Clc1cccc(N=C(OCc2cccc(Oc3ccccc3)c2)C2CC2)c1 [Compound 24] ; response: value
A) 0.005

Q) Param readout = LC50, CL; param system = Cabbage Looper [Trichoplusia ni (Hubner)]; param query = CC(C)C(=Nc1ccc(C(F)(F)F)cc1Cl)OCc1ccc(F)c(Oc2ccccc2)c1 [Compound 428] ; response: value
A) 0.0017

---

# Tested on: Cabbage Looper [Trichoplusia ni (Hubner)]
# methodNotes: Cabbage looper insecticidal test
# Type: in vivo
# testSettings: second-instar larvae, percent in solution; 3-5 days
Would you mind sorting the entries by LC50, CL according to these classes? 0: < 0.0004%; 1: ≥ 0.0004% and < 0.003%; 2: ≥ 0.003%

Take a look at these entries with their results.
- molecule: "CC(C)C(=Nc1ccc(Cl)cc1)OCc1ccc(F)c(Oc2ccc(Cl)cc2)c1"
  systemName: "Cabbage Looper [Trichoplusia ni (Hubner)]"
  groupLabel: 0
- molecule: "CC(C)C(=Nc1cc(Cl)c(Cl)c(Cl)c1)OCc1cccc(Oc2ccccc2)c1"
  systemName: "Cabbage Looper [Trichoplusia ni (Hubner)]"
  groupLabel: 1
- molecule: "Cc1ccc(N=C(OCc2cccc(Oc3ccccc3)c2)C(Cl)Cl)cc1"
  systemName: "Cabbage Looper [Trichoplusia ni (Hubner)]"
  groupLabel: 2

Q) Kindly state the category for this molecule: `CC(C)C(=Nc1ccc(Br)cc1)OCc1ccc(F)c(Oc2ccc(F)cc2)c1`
A) 0

Q) Kindly state the category for this molecule: `CC(C)C(=Nc1ccc(F)c(Cl)c1)OCc1cccc(Oc2ccc(Br)cc2)c1`
A) 0

Q) Kindly state the category for this molecule: `CC(C)(Cl)C(=Nc1ccc(F)c(Cl)c1)OCc1cccc(Oc2ccc(F)cc2)c1`
A) 1

Q) Kindly state the category for this molecule: `CC(C)C(=Nc1ccc(F)c(Br)c1)OCc1cccc(Oc2ccccc2)c1`
A) 1

Q) Kindly state the category for this molecule: `Cc1c(COC(=Nc2ccc(Cl)cc2)C(C)C)cccc1-c1ccccc1`
A) 1

Q) Kindly state the category for this molecule: CC(C)C(=Nc1ccc(C(F)(F)F)cc1)OCc1cccc(Cc2ccccc2)c1 [Compound 535]
A) 2

---

# Test system: Cabbage Looper [Trichoplusia ni (Hubner)]
# methodNotes: Cabbage looper insecticidal test
# Format: in vivo
# testSettings: second-instar larvae, percent in solution; 3-5 days
LC50, CL vs 0.004%: less than gives label 1; not less than gives label 0.

- molecule: "CC(Br)C(=Nc1ccc(F)c(Cl)c1)OCc1cccc(Oc2ccccc2)c1 (stereo not shown)"
  groupLabel: "label 1"
- molecule: "Fc1ccc(Oc2cccc(COC(=Nc3ccc(F)c(Cl)c3)C3CC3)c2)cc1"
  groupLabel: "label 1"
- molecule: "CC(C)C(=Nc1c(F)c(F)cc(F)c1F)OCc1cccc(Oc2ccc(F)cc2)c1"
  groupLabel: "label 1"
- molecule: "Cc1ccc(Cl)cc1N=C(OCc1cccc(Oc2ccccc2)c1)C(C)C"
  groupLabel: "label 0"
- molecule: "CC(C)C(=Nc1ccc(Cl)cc1)OCc1cccc(Oc2ccc(Cl)cc2)c1"
  groupLabel: "label 1"

Q) Dear reviewer, please state whether `COc1cccc(N=C(OCc2cccc(Oc3ccccc3)c2)C(C)C)c1` has LC50, CL strictly beneath 0.004%.
A) label 1

Q) Dear reviewer, please state whether `CC(C)C(=Nc1ccc(F)c(Cl)c1)OCc1ccc(F)c(Oc2ccccc2)c1` has LC50, CL strictly beneath 0.004%.
A) label 1

Q) Dear reviewer, please state whether `CCOC(=O)c1cccc(N=C(OCc2cccc(Oc3ccccc3)c2)C(C)(C)C)c1` has LC50, CL strictly beneath 0.004%.
A) label 0

Q) Dear reviewer, please state whether `CC(C)C(=Nc1ccc2c(c1)CCO2)OCc1cccc(Oc2ccccc2)c1` has LC50, CL strictly beneath 0.004%.
A) label 0

Q) Dear reviewer, please state whether `CCSc1ccc(N=C(OCc2cccc(Oc3ccccc3)c2)C(C)C)cc1Cl` has LC50, CL strictly beneath 0.004%.
A) label 0

Q) Dear reviewer, please state whether `CC(=Nc1ccc(F)c(F)c1)OCc1coc(Cc2ccccc2)c1` has LC50, CL strictly beneath 0.004%.
A) label 0

Q) Dear reviewer, please state whether `CC(C)(C)C(=Nc1cccc([N+](=O)[O-])c1)OCc1cccc(Oc2ccccc2)c1` has LC50, CL strictly beneath 0.004%.
A) label 0

Q) Dear reviewer, please state whether `Clc1ccc(N=C(OCc2cccc(Oc3ccccc3)c2)C2CCC2)cc1` has LC50, CL strictly beneath 0.004%.
A) label 0

Q) Dear reviewer, please state whether `CC(C)C(=Nc1ccc(F)c(Cl)c1)OCc1ccc(Cl)c(Oc2ccc(F)cc2)c1` has LC50, CL strictly beneath 0.004%.
A) label 1

Q) Dear reviewer, please state whether `CCC(=Nc1ccc(CC)cc1)OCc1cccc(Oc2ccccc2)c1` has LC50, CL strictly beneath 0.004%.
A) label 0
